Values from patent US4532255A

# studySystem: UniProt P00747
# Sequence (P00747 581-810 limits assumed, species assumed): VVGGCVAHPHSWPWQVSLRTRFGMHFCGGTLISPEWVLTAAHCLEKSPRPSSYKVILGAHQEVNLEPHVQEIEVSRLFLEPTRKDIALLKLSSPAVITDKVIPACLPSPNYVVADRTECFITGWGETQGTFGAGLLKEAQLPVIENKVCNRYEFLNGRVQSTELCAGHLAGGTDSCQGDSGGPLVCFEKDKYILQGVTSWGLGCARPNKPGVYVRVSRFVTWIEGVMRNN
# Sequence (P00747 97-580 partner limits assumed, species assumed): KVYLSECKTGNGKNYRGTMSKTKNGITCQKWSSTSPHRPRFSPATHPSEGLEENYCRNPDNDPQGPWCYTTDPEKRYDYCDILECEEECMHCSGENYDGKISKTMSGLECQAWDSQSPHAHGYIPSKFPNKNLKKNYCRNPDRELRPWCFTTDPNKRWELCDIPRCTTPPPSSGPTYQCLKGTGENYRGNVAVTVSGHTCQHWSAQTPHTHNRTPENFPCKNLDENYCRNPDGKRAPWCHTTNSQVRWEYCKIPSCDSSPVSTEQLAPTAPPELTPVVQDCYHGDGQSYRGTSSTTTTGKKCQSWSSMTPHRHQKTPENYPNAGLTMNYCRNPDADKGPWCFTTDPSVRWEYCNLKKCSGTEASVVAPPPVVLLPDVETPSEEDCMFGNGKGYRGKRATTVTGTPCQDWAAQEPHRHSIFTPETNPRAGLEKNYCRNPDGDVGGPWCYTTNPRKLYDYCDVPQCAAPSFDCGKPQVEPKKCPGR
# testSummary: Anti-plasmin activity (hydrolysis of TAME)
# Type: biochemical
# runConditions: at 1×10^-5 M; read-out: Plasmin percentage inhibition
# reported inhibition at 10 µM; entries follow
Supply the numeric figure in %, leaving out any unit text.

Looking for the measured inhibition at 10 µM of "CC(=O)Oc1ccccc1C(=O)Oc1ccc2cc(C(=N)N)ccc2c1" , can you help?
40

Further cases:
Looking for the measured inhibition at 10 µM of "N=C(N)c1ccc2cc(OC(=O)c3ccc(OCc4ccccc4)cc3)ccc2c1" , can you help?
48

Looking for the measured inhibition at 10 µM of "CCCCOc1ccc(C(=O)Oc2ccc3cc(C(=N)N)ccc3c2)cc1" , can you help?
17

Looking for the measured inhibition at 10 µM of N=C(N)c1ccc2cc(OC(=O)c3ccc(O)cc3)ccc2c1 [Compound 11, 6-amidino-2-naphthyl 4-hydroxybenzoate] , can you help?
36

Looking for the measured inhibition at 10 µM of N=C(N)c1ccc2cc(OC(=O)c3ccc(N)cc3)ccc2c1 [Compound 20, 6-amidino-2-naphthyl 4-aminobenzoate] , can you help?
27

====

# reported inhibition at 10 µM; entries follow
# studySystem: Thrombin (Homo sapiens, UniProt P00734)
# testSummary: biochemical
# runConditions: at 1×10^-5 M; read-out: Thrombin percentage inhibition
Supply the numeric figure in %, leaving out any unit text.

Looking for the measured inhibition at 10 µM of "Cc1ccc(CCC(=O)Oc2ccc3cc(C(=N)N)ccc3c2)cc1" , can you help?
43

Looking for the measured inhibition at 10 µM of "N=C(N)c1ccc2cc(OC(=O)c3ccc(Cl)cc3)ccc2c1" , can you help?
38

Looking for the measured inhibition at 10 µM of "N=C(N)c1ccc2cc(OC(=O)c3ccc(OCc4ccccc4)cc3)ccc2c1" , can you help?
20

Further cases:
Looking for the measured inhibition at 10 µM of "CC(=O)Oc1ccc(C(=O)Oc2ccc3cc(C(=N)N)ccc3c2)cc1" , can you help?
39

Looking for the measured inhibition at 10 µM of N=C(N)c1ccc2cc(OC(=O)C=Cc3ccc([N+](=O)[O-])cc3)ccc2c1 [Compound 62, 6-amidino-2-naphthyl 4-nitrocinnamate] , can you help?
24

Looking for the measured inhibition at 10 µM of "N=C(N)c1ccc2cc(OC(=O)c3cccc(C(F)(F)F)c3)ccc2c1" , can you help?
40

Looking for the measured inhibition at 10 µM of "CN(C(=N)N)c1ccc(C(=O)Oc2ccc3cc(C(=N)N)ccc3c2)cc1" , can you help?
17

Looking for the measured inhibition at 10 µM of "N=C(N)c1ccc2cc(OC(=O)CCc3ccc(N)cc3)ccc2c1" , can you help?
35

Looking for the measured inhibition at 10 µM of "N=C(N)c1ccc2cc(OC(=O)c3ccc(CN)cc3)ccc2c1" , can you help?
26

====

# studySystem: UniProt P00760
# Sequence (P00760 24-246): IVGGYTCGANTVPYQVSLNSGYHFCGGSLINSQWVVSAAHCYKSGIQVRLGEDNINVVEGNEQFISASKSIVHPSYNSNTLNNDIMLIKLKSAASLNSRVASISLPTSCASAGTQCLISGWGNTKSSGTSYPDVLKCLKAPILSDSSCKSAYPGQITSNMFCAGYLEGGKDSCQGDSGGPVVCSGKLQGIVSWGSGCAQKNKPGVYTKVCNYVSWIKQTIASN
# reported IC50; entries follow
Supply the numeric figure in µM, leaving out any unit text.

Looking for the measured IC50 of "CN(C)c1cccc(C(=O)Oc2ccc3cc(C(=N)N)ccc3c2)c1" , can you help?
20

Further cases:
Looking for the measured IC50 of "N=C(N)c1ccc2cc(OC(=O)c3cccc(C(F)(F)F)c3)ccc2c1" , can you help?
8

Looking for the measured IC50 of N=C(N)c1ccc2cc(OC(=O)C=Cc3ccccc3)ccc2c1 [Compound 57, 6-amidino-2-naphthyl cinnamate] , can you help?
5

====

# testSummary: Toxicity, median lethal dose (LD50)
# runConditions: in vivo, ip
readoutKind: LD50 (mg/kg)
Supply the numeric figure in mg/kg, leaving out any unit text.

Looking for the measured LD50 of "N=C(N)c1ccc2cc(OC(=O)c3ccc(CN)cc3)ccc2c1" , can you help?
200

API: the following record is the query input.
Looking for the measured LD50 of N=C(N)Nc1ccc(C(=O)Oc2ccc3cc(C(=N)N)ccc3c2)cc1 [Compound 27, 6-amidino-2-naphthyl 4-guanidinobenzoate] , can you help?
200

====

# studySystem: C1s (Homo sapiens)
# Sequence (P09871 438-688 limits assumed): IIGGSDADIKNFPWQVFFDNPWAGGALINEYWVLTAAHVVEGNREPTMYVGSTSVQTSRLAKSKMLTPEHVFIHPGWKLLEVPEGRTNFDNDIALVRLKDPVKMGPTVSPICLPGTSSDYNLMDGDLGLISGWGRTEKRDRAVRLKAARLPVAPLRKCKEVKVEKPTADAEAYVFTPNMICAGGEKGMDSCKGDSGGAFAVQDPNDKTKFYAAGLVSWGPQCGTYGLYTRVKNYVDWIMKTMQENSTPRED
# Sequence (P09871 16-437 partner limits assumed): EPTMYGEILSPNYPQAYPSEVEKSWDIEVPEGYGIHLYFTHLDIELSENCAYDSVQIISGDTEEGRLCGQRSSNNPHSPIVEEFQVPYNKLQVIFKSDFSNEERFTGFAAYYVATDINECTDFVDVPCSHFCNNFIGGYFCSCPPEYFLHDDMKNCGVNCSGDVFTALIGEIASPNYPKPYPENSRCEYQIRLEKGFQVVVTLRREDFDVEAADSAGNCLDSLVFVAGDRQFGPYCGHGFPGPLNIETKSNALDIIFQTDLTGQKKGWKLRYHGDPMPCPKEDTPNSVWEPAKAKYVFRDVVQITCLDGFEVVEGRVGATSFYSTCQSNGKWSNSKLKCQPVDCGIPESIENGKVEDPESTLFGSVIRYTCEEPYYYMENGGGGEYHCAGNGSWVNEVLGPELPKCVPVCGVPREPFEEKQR
# testSummary: biochemical
# runConditions: ATEE hydrolysis; read-out: Anti-C1 activity, C1s ID50
# reported pIC50; entries follow
pIC50 field: float, defined as -log10 of concentration (mol/L).

Lab note: need pIC50 for N=C(N)c1ccc2cc(OC(=O)c3ccc([N+](=O)[O-])cc3)ccc2c1 [Compound 18, 6-amidino-2-naphthyl 4-nitrobenzoate] on C1s (Homo sapiens), anyone have it?
5.40

Lab note: need pIC50 for CC(=O)Oc1ccc(C(=O)Oc2ccc3cc(C(=N)N)ccc3c2)cc1 [Compound 13] on C1s (Homo sapiens), anyone have it?
6.52

Lab note: need pIC50 for N=C(N)c1ccc2cc(OC(=O)c3ccc(Br)cc3)ccc2c1 [Compound 17] on C1s (Homo sapiens), anyone have it?
6.30

Lab note: need pIC50 for N=C(N)Nc1ccc(C(=O)Oc2ccc3cc(C(=N)N)ccc3c2)cc1 [Compound 27, 6-amidino-2-naphthyl 4-guanidinobenzoate] on C1s (Homo sapiens), anyone have it?
7.30

Lab note: need pIC50 for N=C(N)c1ccc2cc(OC(=O)c3ccc(Cl)cc3)ccc2c1 [Compound 16] on C1s (Homo sapiens), anyone have it?
6.40

Further cases:
Lab note: need pIC50 for N=C(N)c1ccc2cc(OC(=O)c3ccccc3)ccc2c1 [Compound 1, 6-amidino-2-naphthyl benzoate] on C1s (Homo sapiens), anyone have it?
7.00

Lab note: need pIC50 for N=C(N)Nc1ccc(C=CC(=O)Oc2ccc3cc(C(=N)N)ccc3c2)cc1 [Compound 64] on C1s (Homo sapiens), anyone have it?
5.52

Lab note: need pIC50 for COC(=O)c1ccc(C(=O)Oc2ccc3cc(C(=N)N)ccc3c2)cc1 [Compound 14] on C1s (Homo sapiens), anyone have it?
5.22

====

# studySystem: C1r (Homo sapiens)
# Sequence (P00736 464-705 limits assumed): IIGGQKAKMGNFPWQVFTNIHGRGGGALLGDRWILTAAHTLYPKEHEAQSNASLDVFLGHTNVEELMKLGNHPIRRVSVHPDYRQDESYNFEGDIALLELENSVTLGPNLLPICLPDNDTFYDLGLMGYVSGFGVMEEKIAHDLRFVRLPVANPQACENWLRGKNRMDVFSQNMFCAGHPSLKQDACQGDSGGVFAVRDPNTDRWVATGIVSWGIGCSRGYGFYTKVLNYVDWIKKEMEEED
# Sequence (P00736 18-463 partner limits assumed): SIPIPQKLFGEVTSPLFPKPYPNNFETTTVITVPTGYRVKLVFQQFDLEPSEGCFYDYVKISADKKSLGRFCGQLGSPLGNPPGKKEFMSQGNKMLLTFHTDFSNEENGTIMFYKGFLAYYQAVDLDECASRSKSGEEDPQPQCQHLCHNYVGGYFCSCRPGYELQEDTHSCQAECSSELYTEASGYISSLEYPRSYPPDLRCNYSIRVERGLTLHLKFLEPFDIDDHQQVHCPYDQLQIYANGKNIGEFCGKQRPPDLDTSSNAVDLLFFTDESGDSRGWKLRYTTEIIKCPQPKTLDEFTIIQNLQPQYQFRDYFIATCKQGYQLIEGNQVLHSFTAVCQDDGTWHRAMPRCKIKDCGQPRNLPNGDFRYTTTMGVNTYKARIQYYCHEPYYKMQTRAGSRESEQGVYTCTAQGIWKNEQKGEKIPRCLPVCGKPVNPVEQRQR
# testSummary: Anti-C1 esterase (C1r) activity (hydrolysis of AAME)
# Assay type: biochemical
# runConditions: AAME hydrolysis; read-out: Anti-C1 activity, C1r ID50
readoutKind: IC50

Sample answers from the record:
Looking for the measured IC50 of "COc1ccccc1OCC(=O)Oc1ccc2cc(C(=N)N)ccc2c1" , can you help?
> 10 µM

Looking for the measured IC50 of "CC(=O)c1ccc(C(=O)Oc2ccc3cc(C(=N)N)ccc3c2)cc1" , can you help?
2 µM

Looking for the measured IC50 of "N=C(N)c1ccc2cc(OC(=O)c3ccc(C=O)cc3)ccc2c1" , can you help?
2 µM

Looking for the measured IC50 of N=C(N)c1ccc2cc(OC(=O)c3ccccc3)ccc2c1 [Compound 1, 6-amidino-2-naphthyl benzoate] , can you help?
0.4 µM

Looking for the measured IC50 of "CC(=O)Oc1ccc(C(=O)Oc2ccc3cc(C(=N)N)ccc3c2)cc1" , can you help?
0.3 µM

Further cases:
Looking for the measured IC50 of "N=C(N)Nc1ccc(CCC(=O)Oc2ccc3cc(C(=N)N)ccc3c2)cc1" , can you help?
> 10 µM

Looking for the measured IC50 of "CCCCOc1ccc(C(=O)Oc2ccc3cc(C(=N)N)ccc3c2)cc1" , can you help?
10 µM

Looking for the measured IC50 of "N=C(N)c1ccc2cc(OC(=O)c3ccc(Br)cc3)ccc2c1" , can you help?
0.7 µM

Looking for the measured IC50 of "CC(=O)Nc1ccc(C(=O)Oc2ccc3cc(C(=N)N)ccc3c2)cc1" , can you help?
0.7 µM

Looking for the measured IC50 of N=C(N)Nc1ccc(C(=O)Oc2ccc3cc(C(=N)N)ccc3c2)cc1 [Compound 27, 6-amidino-2-naphthyl 4-guanidinobenzoate] , can you help?
0.1 µM
